# TARGET_SYSTEM: tyrosyl-DNA phosphodiesterase 1 (Tdp1) (Homo sapiens)
# Construct: Purified Tdp1 (1.5 nM) triggered the reaction
# Sequence (Q9NUW8 whole entry): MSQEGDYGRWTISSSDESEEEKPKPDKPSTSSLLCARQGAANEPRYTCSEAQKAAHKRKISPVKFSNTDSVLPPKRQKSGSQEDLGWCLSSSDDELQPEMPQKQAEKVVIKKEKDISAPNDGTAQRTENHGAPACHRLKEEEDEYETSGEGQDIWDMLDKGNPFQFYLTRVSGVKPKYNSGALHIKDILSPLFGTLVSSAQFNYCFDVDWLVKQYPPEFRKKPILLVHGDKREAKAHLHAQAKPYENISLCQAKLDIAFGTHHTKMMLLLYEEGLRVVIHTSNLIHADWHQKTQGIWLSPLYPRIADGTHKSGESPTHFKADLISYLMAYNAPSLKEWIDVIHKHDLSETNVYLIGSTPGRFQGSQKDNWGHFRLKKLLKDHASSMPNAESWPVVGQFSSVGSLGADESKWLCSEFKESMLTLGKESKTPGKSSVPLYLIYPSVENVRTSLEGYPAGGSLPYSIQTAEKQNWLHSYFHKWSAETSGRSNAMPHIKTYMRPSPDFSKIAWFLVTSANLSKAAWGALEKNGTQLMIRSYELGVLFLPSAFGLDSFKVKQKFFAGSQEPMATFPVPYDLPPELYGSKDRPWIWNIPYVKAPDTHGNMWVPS
# TEST_SUMMARY: Tdp1 activity, fluorescent oligonucleotide biosensor (FAM/BHQ1) assay
# Type: biochemical
# SETTINGS: purified Tdp1 1.5 nM, 50 nM biosensor; read-out: Tdp1 inhibiting activity IC50
For each of the compounds below, state its pIC50.
Entry type: numeric. Quantity: pIC50, the -log10 of concentration in molar units.

Input line: What does the record list as pIC50 for CCCC1C2c3c(c(Br)cc(OC)c3OS1(=O)=O)C=C1c3cc4c(cc3CCN12)OCO4 (centres unmarked) [18d] ?
Output line: 6.11

Input line: Would you kindly repeat that for COc1ccc2c3c1OS(=O)(=O)CC3N1CCc3cc4c(cc3C1=C2)OCO4 (centres unmarked) [10a] ?
Output line: 5.82

Input line: Would you kindly repeat that for COc1ccc2c3c1OS(=O)(=O)C(C)C3N1CCc3cc4c(cc3C1=C2)OCO4 (centres unmarked) [10b] ?
Output line: 5.67

Input line: Would you kindly repeat that for CCCC1C2c3c(ccc(OC)c3OS1(=O)=O)C=C1c3cc4c(cc3CCN12)OCO4 (centres unmarked) [10d] ?
Output line: 5.95

Input line: Would you kindly repeat that for COc1ccc2c3c1OS(=O)(=O)C=C3N1CCc3cc4c(cc3C1=C2)OCO4 [16a] ?
Output line: 5.60

* * *

# TEST_SUMMARY: Cytotoxicity, EZ4U Cell Proliferation and Cytotoxicity Assay
# Assay type: cell-based, human
# SETTINGS: human; HeLa cells, EZ4U test, 3 days; read-out: CC50 HeLa
OBSERVABLE: CC50 at 3 days (µM)
All answers are understood in µM, so give the number only.

Input line: What does the record list as CC50 at 3 days for COc1ccc2cc3[n+](cc2c1OC)CCc1cc2c(cc1-3)OCO2 [berberine 1, berberine] ?
Output line: 20
